# target: HLA-B*44:02
# assay.overview: IEDB peptide-MHC binding, purified MHC/direct/fluorescence; filed as Kd, often an IC50 or EC50 that approximates it; bounds were set here for any values at or beyond the usual limits of such assays
# setup.conditions: source organism: Orthomarburgvirus marburgense
metric.name: Kd

**Q:** What value of Kd has been recorded for this entry: LEHGLYPQL
**A:** ≥ 5 µM

* * *

# target: HLA-B*40:01
# assay.overview: IEDB peptide-MHC binding, purified MHC/direct/fluorescence; filed as Kd, often an IC50 or EC50 that approximates it; bounds were set here for any values at or beyond the usual limits of such assays
# setup.conditions: source organism: Vibrio vulnificus YJ016
pKd: −log10 of the molar value.
metric.name: pKd

**Q:** What value of pKd has been recorded for this entry: EPADHLAIM
**A:** ≤ 4.70

The reported numbers originate from the Immune Epitope Database (IEDB).
